# ASSAY_NOTES: folding enthalpy; higher = less favourable; fluorescence melt of hairpins on a sequencing array, two-state fit
# CONDITION: sodium 0.088 M
METRIC: folding enthalpy (kcal/mol)
State just the number; it will be interpreted in kcal/mol.

Which measured folding enthalpy value corresponds to GCACCCGAAAGGGTTGC ((((((....))).))) ?
-22.5

// returns reported folding enthalpy for input GTTTGCCGAAAGGCAAC (((.(((....))))))
-10.7

Any idea what its folding enthalpy is? The sequence is GCCCTCCGAAAGGATGGC (((.(((....))).)))
-37.5

What value of folding enthalpy has been reported for the following sequence? GGGCGTACGAAAGTACCC (((..(((....))))))
-17.4

Reported folding enthalpy, sequence GATCTCTAAGGAGATC ((((((....)))))) : ____
-34.9

Entry GCTCTGCGAAAGCTCAGC (((..((....))..))) : reported folding enthalpy = ?
-14.9

I am curious: what folding enthalpy value has been reported for GATCGTATGTACGATC ((((((....)))))) ?
-37.7

// returns reported folding enthalpy for input GACCGCGAAAGCGAAGTC ((((((....)))..)))
-16.9

What value of folding enthalpy has been recorded for this entry: GCGAGAGTTCGC ((((....))))
-16.3

Given the entry GGTCAGCGAAAGCTACC (((.(((....)))))) , report its measured folding enthalpy.
-16.7

Recorded folding enthalpy of GGAAACGGAAACGCTTCC ((((.((....)).)))) , please.
-34.1

Suppose we examine the sequence GAACACGAAAGTGTGTTC ((((((....)))..))) ; what folding enthalpy value has been reported?
-17.8

// provenance: the array DNA melting data of Ke et al. (doi:10.1101/2024.01.08.574731)
